- tgt: SARS-CoV-2 WT spike on rVSV-deltaG-Luc pseudovirus (SARS-CoV-2), P0DTC2
- experimental_protocol: cell-based or functional assay
# Lookup of reported pseudovirus neutralization IC50 keyed by entry
reported_property: pseudovirus neutralization IC50 (nM)

[[record]]
binder = "5D7 VHH-Fc (Fc fusion) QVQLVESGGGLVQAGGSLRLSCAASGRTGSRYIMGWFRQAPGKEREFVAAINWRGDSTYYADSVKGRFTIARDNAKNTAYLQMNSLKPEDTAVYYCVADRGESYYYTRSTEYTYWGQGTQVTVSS"
unit_symbol = "nM"
observed = 6.52

[[record]]
binder = "15H7 VHH-Fc (Fc fusion) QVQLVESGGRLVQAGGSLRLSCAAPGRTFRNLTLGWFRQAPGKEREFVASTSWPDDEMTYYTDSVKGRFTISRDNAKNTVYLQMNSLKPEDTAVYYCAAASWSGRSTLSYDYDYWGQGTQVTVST"
unit_symbol = "nM"
observed = 1.33


Data provenance: patent US20250382355A1
